Protocol Summary: Primary redox qHTS assay for identification of artifact compounds. (AID 1845223);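 also: 0% = DMSO and 100% = reference compound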
Test Parameters: Amplex Red/HRP redox cycling with DTT, fluorescence; series mostly up to 53.8 µM
From the text: PI: Alexander Tropsha Ph.D. UNC Eshelman School of Pharmacy University of North Carolina, Chapel Hill, North Carolina Hits from high-throughput screening (HTS) of chemical libraries are often false positives due to their interference with the assay detection technology. […] Using these curated datasets, we developed and validated several Quantitative Structure-Interference Relationship (QSIR) models to predict nuisance behavior. […]
Inconclusive results are not listed. Activity calls are given as the source filed them. Calls follow the shape of the dose curve; as a rule, active = well fitted activation curve with a large enough effect; inconclusive = small, poorly fitted or top-dose-only effect; inactive = flat fitted curve, though single readings scatter.
Assay Metric: redox activity (% of DA3003)

Compound	Meas Value
C/C=C(\C)C(=O)O[C@@H](C)[C@H]1CC[C@]2(O)C3CCC4C[C@@H](OC5CC(OC)C(OC6CC(OC)C(OC7CC(OC)C(OC8OC(C)C(OC9OC(CO)C(O)C(O)C9O)C(OC)C8O)C(C)O7)C(C)O6)C(C)O5)CC[C@]4(C)C3[C@H](O)[C@@H](O)[C@]12C (stereo partly specified)	14% [at 11.5 µM] (inactive)
CCC1CC2C(C)=CC3CCCCC3C2(C)C2(OC(=O)C(C)(O)OC2=O)O1 (stereo unspecified)	inactive
Cc1cc(O)c(C(C)C)cc1O[C@@H]1O[C@H](CO)[C@@H](O)[C@H](O)[C@H]1O	inactive
Cc1cc(Nc2ncc(Cl)c(Nc3ccccc3S(=O)(=O)C(C)C)n2)c(OC(C)C)cc1C1CCNCC1	inactive
C=CC(C)(O)CC/C=C(\C)C(=O)OC1CC2(C(=O)O)CCC3(C)C(=CCC4C5(C)CCC(OC6OC(COC7OCC(O)C(O)C7O)C(O)C(OC7OCC(O)C(O)C7O)C6OC6OC(CO)C(O)C(O)C6OC6OCC(O)C(O)C6O)C(C)(C)C5CCC43C)C2CC1(C)C (stereo unspecified)	11.8% [at 11.5 µM] (inactive)
COC1(CC(C)C)NC(=O)C(O)(Cc2ccccc2)NC1=O (stereo unspecified)	inactive
